The entries below are paired with their reported IC50.
# systemUnderTest: CGRP receptor (Homo sapiens, UniProt O60894+Q16602)
# Sequence (Q16602 23-461): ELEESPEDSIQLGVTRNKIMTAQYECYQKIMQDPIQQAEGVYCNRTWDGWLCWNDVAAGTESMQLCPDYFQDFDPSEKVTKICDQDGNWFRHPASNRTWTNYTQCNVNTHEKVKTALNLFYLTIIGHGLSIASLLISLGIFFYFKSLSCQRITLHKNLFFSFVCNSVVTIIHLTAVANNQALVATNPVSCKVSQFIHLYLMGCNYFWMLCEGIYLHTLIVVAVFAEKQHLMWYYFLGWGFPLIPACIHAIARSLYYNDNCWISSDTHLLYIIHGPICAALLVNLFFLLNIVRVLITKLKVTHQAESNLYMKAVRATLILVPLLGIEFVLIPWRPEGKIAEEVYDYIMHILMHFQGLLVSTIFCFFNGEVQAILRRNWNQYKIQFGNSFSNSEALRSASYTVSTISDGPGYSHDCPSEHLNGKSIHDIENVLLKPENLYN
# Sequence (O60894 27-148): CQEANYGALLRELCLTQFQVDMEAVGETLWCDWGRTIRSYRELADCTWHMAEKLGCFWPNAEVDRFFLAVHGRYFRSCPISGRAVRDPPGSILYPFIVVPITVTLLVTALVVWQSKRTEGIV
# testMethodNotes: Inhibition of CGRP signaling pathway (cAMP, HTRF) in CHO-K1 cells expressing human CGRP receptors
# Assay type: cell-based
# Set-up: host or cells: CHO-K1
# particulars: [α-CGRP]=10 ng/ml; increase in cAMP levels; read-out: IC50 of the inhibitory effect on the CGRP signaling pathway in CHO-K1 cells expressing human CGRP receptors
recordedEndpoint: IC50

[[record]]
compound = "CC1C(c2c(F)ccc(F)c2F)CC(NC(=O)c2cc3c(s2)CCC2(C3)C(=O)Nc3ncccc32)C(=O)N1CC(F)(F)F (stereo not shown) [Example 2]"
result = "250 nM"

[[record]]
compound = "CC1C(c2c(F)ccc(F)c2F)CC(NC(=O)c2cc3c(o2)CCC2(C3)C(=O)Nc3ncccc32)C(=O)N1CC(F)(F)F (stereo not shown) [Example 1]"
result = "106 nM"

[[record]]
compound = "C[C@@H]1[C@H](c2c(F)ccc(F)c2F)C[C@H](NC(=O)c2cc3c(s2)C[C@]2(C3)C(=O)Nc3ncccc32)C(=O)N1CC(F)(F)F [Example 3A]"
result = "2.9 nM"

[[record]]
compound = "C[C@@H]1[C@H](c2c(F)ccc(F)c2F)C[C@H](NC(=O)c2cnc3c(c2)C[C@@]2(C3)C(=O)Nc3ncccc32)C(=O)N1CC(F)(F)F [Atogepant, reference compound]"
result = "1.5 nM"

[[record]]
compound = "CC1C(c2c(F)ccc(F)c2F)CC(NC(=O)c2cc3c(s2)CC2(C3)C(=O)Nc3ncccc32)C(=O)N1CC(F)(F)F (stereo not shown) [Example 3]"
result = "64.7 nM"

[[record]]
compound = "C[C@@H]1[C@H](c2c(F)ccc(F)c2F)C[C@H](NC(=O)c2cc3c(o2)CC[C@]2(C3)C(=O)Nc3ncccc32)C(=O)N1CC(F)(F)F [Example 1A]"
result = "14.5 nM"

[[record]]
compound = "CC1C(c2c(F)ccc(F)c2F)CC(NC(=O)c2cc3c(o2)CC2(C3)C(=O)Nc3ncccc32)C(=O)N1CC(F)(F)F (stereo not shown) [Example 4]"
result = "199 nM"


Recorded values, source patent US20250353860A1.
